tested on: Jurkat HIV-luciferase clones; experiment: Jurkat latency reversal assay; type: cell-based; conditions: Homo sapiens, Jurkat; Table 4 summary; read-out: Jurkat EC50
Structures can show the parent of a compound that is named as a salt.
Please provide measured EC50 for the entries that follow.
# output: number + unit

query: Consider the compound "CN[C@@H](C)C(=O)N[C@H]1CCS[C@H]2CC(C)(C)[C@@H](C(=O)N[C@H]3c4ccccc4C[C@H]3OCCCCCCO[C@@H]3Cc4ccccc4[C@@H]3NC(=O)[C@H]3N4C(=O)[C@@H](NC(=O)[C@H](C)NC)CCS[C@H]4CC3(C)C)N2C1=O" and give its recorded EC50.
result: 11.9 nM

query: Indicate its recorded EC50; the compound in question is CN[C@@H](C)C(=O)N[C@H]1CCS[C@H]2CC(C)(C)[C@@H](C(=O)N[C@H](COCC#CC#CCOC[C@@H](NC(=O)[C@H]3N4C(=O)[C@@H](NC(=O)[C@H](C)NC)CCS[C@H]4CC3(C)C)c3ccccc3)c3ccccc3)N2C1=O [compound 33, dihydrochloride]
result: 5.5 nM

query: Give the reported EC50 for this compound. CN[C@@H](C)C(=O)N[C@H]1CCS[C@H]2CC(C)(C)[C@@H](C(=O)N[C@H](COCCCCCCOC[C@@H](NC(=O)[C@H]3N4C(=O)[C@@H](NC(=O)[C@H](C)NC)CCS[C@H]4CC3(C)C)c3ccccc3)c3ccccc3)N2C1=O [compound 40, dihydrochloride]
result: 6.1 nM

query: Provide only the value of recorded EC50 for CN[C@@H](C)C(=O)N[C@H]1CCS[C@H]2CC(C)(C)[C@@H](C(=O)N[C@H](COCc3ccc(COC[C@@H](NC(=O)[C@H]4N5C(=O)[C@@H](NC(=O)[C@H](C)NC)CCS[C@H]5CC4(C)C)c4ccccc4)cc3)c3ccccc3)N2C1=O [compound 42, dihydrochloride]
result: 6.8 nM

query: Identify the reported EC50 for the following entry. CN[C@@H](C)C(=O)N[C@H]1CCS[C@H]2CC(C)(C)[C@@H](C(=O)N[C@H]3c4ccccc4C[C@H]3OCC#CC#CCO[C@@H]3Cc4ccccc4[C@@H]3NC(=O)[C@H]3N4C(=O)[C@@H](NC(=O)[C@H](C)NC)CCS[C@H]4CC3(C)C)N2C1=O [compound 13, dihydrochloride]
result: 9.3 nM
